- Tested on: A549 NSCLC
- Procedure details: NCI tumour cell line growth inhibition, 48 h; in the data active = GI50 below about 0.43 µM; inactive = the rest
Give one outcome, nothing more. List: active, inactive

Reference set, count: 3
CCCCCCCCOC(=O)c1c(C)[nH]c(/C=C2\N=C(c3ccc[nH]3)C=C2OC)c1C; active
CN(C)CCNC(=O)c1ccc(-c2nc3ccc4[nH]ncc4c3c3c2C2CCC3C2)cc1 (stereo unspecified); inactive
COc1cccc(CN(C)c2ccc(CO)c(Cl)c2)c1; inactive

Exercise: Any idea what this test logged for Cn1cccc1-c1cc(-c2ccccc2)[nH]c(=O)c1C#N ?
Key: inactive

Exercise: Lab log entry: CC[C@@]1(OC(=O)CN)C(=O)OCc2c1cc1n(c2=O)Cc2c-1nc1cc3c(cc1c2CCl)OCO3 — outcome as called in the assay?
Key: active

Exercise: Assay outcome for O=C(/C=C/c1ccc(O)c(O)c1)NCc1c[nH]c2ccccc12 : what was it?
Key: inactive
